TGT: UniProt P55055
Sequence (P55055 212-460 limits assumed): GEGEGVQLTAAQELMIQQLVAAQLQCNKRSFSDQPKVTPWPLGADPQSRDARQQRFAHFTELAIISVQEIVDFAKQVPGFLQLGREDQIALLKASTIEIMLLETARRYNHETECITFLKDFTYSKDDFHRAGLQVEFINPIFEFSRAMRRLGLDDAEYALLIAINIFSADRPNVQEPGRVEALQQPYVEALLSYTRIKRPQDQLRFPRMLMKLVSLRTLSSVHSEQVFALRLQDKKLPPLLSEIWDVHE
MEASUREMENT_DESCRIPTION: LanthaScreen TR-FRET coactivator assay LXRβ
CONDITION_CONTEXT: read-out: EC50, LXRβ agonism, coactivator recruitment via TR-FRET
MEASURED_ATTRIBUTE: pEC50
Expect pEC50 as a plain number equal to -log10 of the molar concentration.

Record summary for "CCOC(=O)c1cccc(NC(=O)c2sc(Cl)cc2S(=O)(=O)N(C)c2ccc(OCC)c(OCC)c2)c1" : reported pEC50 = 5.89

* * *

Test system: ABCA1
MEASUREMENT_DESCRIPTION: ABCA1-linked luciferase assay in HepG2 cells
Type: cell-based
CONDITION_CONTEXT: Homo sapiens; HepG2 liver cells; Example 2, compounds active in ABCA1-Luc assay; read-out: EC50 in HepG2 liver cells
MEASURED_ATTRIBUTE: EC50 (nM)
Form entry: value (nM) — number only.

Memo: CCOC(=O)c1cc(Cl)cc(NC(=O)c2sc(Cl)cc2S(=O)(=O)N(C)c2ccc(OCC)c(OC)c2)c1 [CL3-3] , reported EC50: 300
